target: T1, full-length WNV NS1 (strain 382-99), wild type, expressed in HEK293T cells (West Nile virus, New York 1999, strain …, UniProt Q9Q6P4); test: flow cytometry on cells; conditions: one partner purified
T1 construct: also called WT NS1; WT WNV NS1; source: HEK293T, transfected (pFM-A1.2), on fixed cells
T1 sequence (Q9Q6P4 792-1143): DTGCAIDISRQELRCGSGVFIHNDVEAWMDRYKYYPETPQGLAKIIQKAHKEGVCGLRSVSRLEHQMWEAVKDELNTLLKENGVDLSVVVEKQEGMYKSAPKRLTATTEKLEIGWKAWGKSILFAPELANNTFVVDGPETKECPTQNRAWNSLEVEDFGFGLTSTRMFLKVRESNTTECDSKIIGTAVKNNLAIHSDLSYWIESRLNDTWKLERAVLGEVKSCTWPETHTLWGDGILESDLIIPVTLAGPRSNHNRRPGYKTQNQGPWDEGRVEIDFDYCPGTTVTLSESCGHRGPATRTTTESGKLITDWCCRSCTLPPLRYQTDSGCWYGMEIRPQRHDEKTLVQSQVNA
measurementKind: binding result

- binder: "WNV-104 (antibody, V domains shown) VH: QVQLVESGGGVVQPGTSLRLSCAASGFTFRSYGMHWVRQAPGKGLEWVALIWYDGSNKYYADSVKGRFTISRDNSRSTLYLQMNSLRAEDTAVYYCARDLGEYDSLVGPLYTARLGYWGQGTLVTVSS VL: DIQMTQSPSSLSASVGDRVTMTCQASQDISNYLNWYQQKPGKAPNLLIYDASNLETGVPSRFSGSGSGTDFTFTISSLQPEDIATYYCQQYDNLPITFGQGTRLEIK"
  measurementKind: "binding result"
  reportedResult: "binds"
- binder: "WNV-117 (antibody, V domains shown) VH: EVQLLESGGGLVQPGGSLRLSCAASGFTFSNYAMSWVRQAPGKGLEWVSSISDRGDYTYYADSVKGRFTISRDKSRNTLYLQIKSLRAEDTAVYYCAKCWGRGSYSGIPD VL: DIQMTQSPSSLSASVGDRVTISCQASHDITNFLNWYQQKPGKAPKLLIYDASNLEAGVPSRFSGSGSGTDFTFTISSLQPEDIATYYCQQYDNLFITFGQGTRLEIK"
  measurementKind: "binding result"
  reportedResult: "binds"
- binder: "WNV-103 (antibody, V domains shown) VH: EVQLVESGGGLLQPGGSLRLSCAASGFSFSRYWMHWVRQAPGKGLIWVSRINTDGSTTIYADSVKGRFTVSRDNAKNTLFLQMSRLRPEDTAVYYCARVIASPGISYGMDVWGHGTTVTVSS VL: SHELTQPPSVSVSPGQTATITCSGDALPKQYAYWYQQKSGQAPVLVIYKDTKRPSGIPERFSGSSSGTVVTLTISGVQAEDEADYYCQSADISSTYVVFAGGTKLTVL"
  measurementKind: "binding result"
  reportedResult: "binds"
